Reported protein stability index values for a set of sequences
measurement-protocol: protein stability index of a GFP-peptide fusion (GPS, HEK-293T) (PSI 1-6); higher = more stable;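 note: 24-mer peptide tiles fused after GFP, lentivirally expressed, FACS-sorted into six equal bins by GFP/DsRed ratio, decoded by Illumina sequencing, PSI is the read-weighted mean bin number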
settings: treatment: DMSO; c terminus: a fixed tail appended
measure: protein stability index

>>> recorded_value("NDIFQAANPYWTSRGSSVSMSGGR [TRIM63]")
3.76
>>> recorded_value("ACGIEHCSVHYVSDSGDGVYAGRP [FBXO34]")
2.25
>>> recorded_value("YTGYCWCVTPNGRPISGTAVAHKT [SMOC2]")
2.73
>>> recorded_value("YRQVPGSDPARYEFLWGPRAHAEI [MAGEA10]")
2.73
>>> recorded_value("EALAKQVASEMRFVQDLVRALEQE [DAPK3]")
2.95
>>> recorded_value("KRLYDKAAKMYHQLKKCETRKLSP [SMG5]")
2.28
>>> recorded_value("NQEITKAFHVRRTNRVKECLAKGT [RHOBTB2]")
3.41
>>> recorded_value("SLDEFRQTWKLFSSHMNIDITDDC [PPEF2]")
2.49
>>> recorded_value("PAPPPPAGGATAWGDLLGEDSLAA [SNAP91]")
5.13
>>> recorded_value("TCSECGKGFIQKGNLNIHQRTHTG [ZNF649]")
3.24
>>> recorded_value("MQIAVPCAFLLLRLLVGLALATLR [TMEM175]")
2.46
>>> recorded_value("RTGLEKAAAGAVGLERRDWSPSPP [SPDEF]")
4.55
>>> recorded_value("APSPQEALVRLRETEEMLGKKQEY [CHMP4C]")
5.26
>>> recorded_value("DTMRQINKKGFWSYGPVILVVLVV [TOR1AIP2]")
2.49
>>> recorded_value("TLEFENVQVLTMGNDTSPSEGTNL [HNF4A]")
4.69
>>> recorded_value("EGYQALYHAVVEPMLWNPSGTPKR [C22orf31]")
2.39
